# target under test: T1, human BCMA on BCMA expressing cell lines (human, UniProt Q02223 1-184)
# T1 sequence: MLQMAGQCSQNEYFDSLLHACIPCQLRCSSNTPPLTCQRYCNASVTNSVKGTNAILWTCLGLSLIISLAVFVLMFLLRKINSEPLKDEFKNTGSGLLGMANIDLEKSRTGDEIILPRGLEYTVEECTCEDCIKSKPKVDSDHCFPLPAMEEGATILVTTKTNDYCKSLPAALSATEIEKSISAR
# experimental protocol: cell-based or functional assay
measured property: TDCC EC50 (EJM cells) (pM)
# output: bare number, implied unit pM

INPUT: What value of measured TDCC EC50 (EJM cells) is listed for BCMA targeting trispecific protein 01G06 (other, not shown: large carriers; small tags and cut ends, trispecific) VHH: EVQLVESGGGLVQPGRSLTLSCAASTNIFSRSPMGWYRQAPGKQRELVAAIHGFETLYADSVKGRFTISRDNAKNSIYLQMNSLRPEDTALYYCNKVPWGDYHPRNVLWGQGTQVTVSS ?
OUTPUT: 19.2

INPUT: What value of measured TDCC EC50 (EJM cells) is listed for BCMA targeting trispecific protein 01D05 (other, trispecific; not shown: anti-albumin domain, anti-CD3 domain and the linkers of the trispecific (TriTAC) chain; the C-terminal 6xHis tag follows these missing domains and is left out) VHH: EVQLVESGGGLVQPGRSLTLSCAASTNIFSDSPMGWYRQAPGKQRELVAAIHGTSTLYADSVKGRFTISRDNAKNSIYLQMNSLRPEDTALYYCNKVPWGDYHPRNVYWGQGTQVTVSS ?
OUTPUT: 16.6

INPUT: What value of measured TDCC EC50 (EJM cells) is listed for BCMA targeting trispecific protein 02B07 (other, trispecific; not shown: anti-albumin domain, anti-CD3 domain and the linkers of the trispecific (TriTAC) format) VHH: EVQLVESGGGLVQPGRSLTLSCAASTNIFSSSPMGWYRQAPGKQRELVAAIHGHSTLYADSVKGRFTISRDNAKNSIYLQMNSLRPEDTALYYCNKVPWGDYHPRNVTWGQGTQVTVSS ?
OUTPUT: 14.2

Continuing:
INPUT: What value of measured TDCC EC50 (EJM cells) is listed for BCMA targeting trispecific protein 02D11 (other, trispecific; not shown: the C-terminal His6 follows those missing domains and is left out) VHH: EVQLVESGGGLVQPGRSLTLSCAASTNEFSISPMGWYRQAPGKQRELVAAIHGESTLYADSVKGRFTISRDNAKNSIYLQMNSLRPEDTALYYCNKVPWGDYHPGNVYWGQGTQVTVSS ?
OUTPUT: 2.35

Data origin, for the record: patent US20240327534A1
